# Tested system: CYP1A (Homo sapiens, UniProt P04798+P05177)
# Measurement description: Inhibition of CYP1A in human liver microsomes by fluorescence assay
# Format: ADME, Microsome
pIC50: −log10 of the molar value.
Readout label: pIC50

QUERY: Any idea what pIC50 was measured for CCCCc1nc2cc(/C=C/C(=O)NO)ccc2n1CCN(CC)CC.Cl.Cl ?
RESULT: < 4.60

QUERY: Any idea what pIC50 was measured for CN(C)CC(C)(C)Cn1c(CC(C)(C)C)nc2cc(/C=C/C(=O)NO)ccc21 ?
RESULT: < 4.60

QUERY: Any idea what pIC50 was measured for CCCCCCc1nc2cc(/C=C/C(=O)NO)ccc2n1CCN(C)C ?
RESULT: < 4.60

====

# Tested on: HCT-116
# Measurement description: Antitumor activity against human HCT116 cells xenografted in athymic nu/nu Harlan mouse assessed as tumor growth inhibition at 50 mg/kg, po qd for 21 days measured on day 22
# Assay type: functional
# Condition summary: read-out: TGI
Record form. Attribute: inhibition in vivo at 50 mg/kg. Fill in for each entry.
Be sure to follow the number with its unit.

QUERY: Any idea what inhibition in vivo at 50 mg/kg was measured for CCCCCCc1nc2cc(/C=C/C(=O)NO)ccc2n1CCNCC.Cl.Cl ?
RESULT: -9%

QUERY: Any idea what inhibition in vivo at 50 mg/kg was measured for O=C(/C=C/c1cccc(S(=O)(=O)Nc2ccccc2)c1)NO ?
RESULT: 6%

QUERY: Any idea what inhibition in vivo at 50 mg/kg was measured for CN(C)CC(C)(C)Cn1c(CC(C)(C)C)nc2cc(/C=C/C(=O)NO)ccc21.Cl.Cl ?
RESULT: 55%

QUERY: Any idea what inhibition in vivo at 50 mg/kg was measured for CCCCc1nc2cc(/C=C/C(=O)NO)ccc2n1CCNC(C)C.Cl.Cl ?
RESULT: 19%

====

# Tested system: Cytochrome P450 3A4 (Homo sapiens, UniProt P08684)
# Sequence (P08684 whole entry): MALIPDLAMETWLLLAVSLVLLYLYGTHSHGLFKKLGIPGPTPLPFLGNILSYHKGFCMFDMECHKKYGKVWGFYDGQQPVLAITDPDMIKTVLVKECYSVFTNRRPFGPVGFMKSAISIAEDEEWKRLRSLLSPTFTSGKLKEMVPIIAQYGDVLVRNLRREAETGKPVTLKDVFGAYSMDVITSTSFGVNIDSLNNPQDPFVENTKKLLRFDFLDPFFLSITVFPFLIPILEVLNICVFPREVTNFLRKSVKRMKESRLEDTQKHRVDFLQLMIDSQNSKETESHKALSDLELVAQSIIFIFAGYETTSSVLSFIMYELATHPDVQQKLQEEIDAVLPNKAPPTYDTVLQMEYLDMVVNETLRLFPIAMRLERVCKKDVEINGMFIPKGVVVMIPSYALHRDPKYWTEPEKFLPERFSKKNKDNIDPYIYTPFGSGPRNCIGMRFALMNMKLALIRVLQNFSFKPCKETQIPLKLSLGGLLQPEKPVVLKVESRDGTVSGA
# Measurement description: Inhibition of recombinant CYP3A4 after 30 mins by fluorescence assay
# Type: ADME
Record form. Attribute: pIC50. Fill in for each entry.
When answering, recall that pIC50 equals minus log10 of the concentration in mol/L, and write that number alone.

QUERY: Param readout = pIC50; param system = Cytochrome P450 3A4 (Homo sapiens, UniProt P08684); param query = CCCCCCc1nc2cc(/C=C/C(=O)NO)ccc2n1CCN(C)C ; response: value
RESULT: 6.48

QUERY: Param readout = pIC50; param system = Cytochrome P450 3A4 (Homo sapiens, UniProt P08684); param query = CN(C)CC(C)(C)Cn1c(CC(C)(C)C)nc2cc(/C=C/C(=O)NO)ccc21 ; response: value
RESULT: 5.64

====

# Tested system: Histone deacetylase 2 (Homo sapiens, UniProt Q92769)
# Sequence (Q92769 whole entry): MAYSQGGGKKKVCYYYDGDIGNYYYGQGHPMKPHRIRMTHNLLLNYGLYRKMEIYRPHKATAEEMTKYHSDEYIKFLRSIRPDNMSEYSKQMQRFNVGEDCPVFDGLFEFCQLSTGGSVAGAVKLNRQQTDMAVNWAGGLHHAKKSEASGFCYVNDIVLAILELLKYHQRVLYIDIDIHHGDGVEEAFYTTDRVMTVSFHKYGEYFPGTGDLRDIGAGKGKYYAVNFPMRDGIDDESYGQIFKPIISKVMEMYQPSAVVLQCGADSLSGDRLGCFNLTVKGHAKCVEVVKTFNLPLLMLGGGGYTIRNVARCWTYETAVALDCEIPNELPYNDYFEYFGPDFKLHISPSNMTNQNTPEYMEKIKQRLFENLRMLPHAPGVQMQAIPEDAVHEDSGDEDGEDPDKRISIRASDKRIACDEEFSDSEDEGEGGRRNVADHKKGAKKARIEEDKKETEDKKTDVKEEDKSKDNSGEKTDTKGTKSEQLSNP
Readout label: Ki (nM)
Quick reminder: number only, in nM, skip the unit.

QUERY: Param readout = Ki; param system = Histone deacetylase 2 (Homo sapiens, UniProt Q92769); param query = CCCCCCc1nc2cc(/C=C/C(=O)NO)ccc2n1CCN(C)C ; response: value
RESULT: 21

QUERY: Param readout = Ki; param system = Histone deacetylase 2 (Homo sapiens, UniProt Q92769); param query = CN(C)CC(C)(C)Cn1c(CCc2ccccc2)nc2cc(/C=C/C(=O)NO)ccc21 ; response: value
RESULT: 39

QUERY: Param readout = Ki; param system = Histone deacetylase 2 (Homo sapiens, UniProt Q92769); param query = CCCCc1nc2cc(/C=C/C(=O)NO)ccc2n1CCN(CC)CC.Cl.Cl ; response: value
RESULT: 27

QUERY: Param readout = Ki; param system = Histone deacetylase 2 (Homo sapiens, UniProt Q92769); param query = CCCCCCc1nc2cc(/C=C/C(=O)NO)ccc2n1CCNCC ; response: value
RESULT: 18

QUERY: Param readout = Ki; param system = Histone deacetylase 2 (Homo sapiens, UniProt Q92769); param query = CN(C)CC(C)(C)Cn1c(CC(C)(C)C)nc2cc(/C=C/C(=O)NO)ccc21 ; response: value
RESULT: 26

QUERY: Param readout = Ki; param system = Histone deacetylase 2 (Homo sapiens, UniProt Q92769); param query = CCCCc1nc2cc(/C=C/C(=O)NO)ccc2n1CCNC(C)C ; response: value
RESULT: 33

QUERY: Param readout = Ki; param system = Histone deacetylase 2 (Homo sapiens, UniProt Q92769); param query = CC/C=C\CCc1nc2cc(/C=C/C(=O)NO)ccc2n1CCNCC ; response: value
RESULT: 8.6

====

# Measurement description: AUC (0 to infinity) in Wistar rat at 2 mg/kg, iv
# Type: ADME, organism-based
# Set-up: time infinity, dose 2 mg/kg, route intravenous
# Condition summary: plasma
Readout label: AUC(0-inf)
Be sure to follow the number with its unit.

QUERY: Any idea what AUC(0-inf) was measured for CCCCc1nc2cc(/C=C/C(=O)NO)ccc2n1CCN(CC)CC.Cl.Cl ?
RESULT: 1.15 µM·h

====

# Measurement description: Plasma protein binding in mouse at 1000 ng/mL
# Format: ADME, cell-free
# Condition summary: read-out: PPB (converted)
Readout label: fraction unbound at 1000 ng/mL
# respond with the number and nothing more

QUERY: Any idea what fraction unbound at 1000 ng/mL was measured for CCCCc1nc2cc(/C=C/C(=O)NO)ccc2n1CCN(CC)CC.Cl.Cl ?
RESULT: 0.061

====

# Tested system: Polyamine deacetylase HDAC10 (Homo sapiens, UniProt Q969S8)
# Sequence (Q969S8 whole entry): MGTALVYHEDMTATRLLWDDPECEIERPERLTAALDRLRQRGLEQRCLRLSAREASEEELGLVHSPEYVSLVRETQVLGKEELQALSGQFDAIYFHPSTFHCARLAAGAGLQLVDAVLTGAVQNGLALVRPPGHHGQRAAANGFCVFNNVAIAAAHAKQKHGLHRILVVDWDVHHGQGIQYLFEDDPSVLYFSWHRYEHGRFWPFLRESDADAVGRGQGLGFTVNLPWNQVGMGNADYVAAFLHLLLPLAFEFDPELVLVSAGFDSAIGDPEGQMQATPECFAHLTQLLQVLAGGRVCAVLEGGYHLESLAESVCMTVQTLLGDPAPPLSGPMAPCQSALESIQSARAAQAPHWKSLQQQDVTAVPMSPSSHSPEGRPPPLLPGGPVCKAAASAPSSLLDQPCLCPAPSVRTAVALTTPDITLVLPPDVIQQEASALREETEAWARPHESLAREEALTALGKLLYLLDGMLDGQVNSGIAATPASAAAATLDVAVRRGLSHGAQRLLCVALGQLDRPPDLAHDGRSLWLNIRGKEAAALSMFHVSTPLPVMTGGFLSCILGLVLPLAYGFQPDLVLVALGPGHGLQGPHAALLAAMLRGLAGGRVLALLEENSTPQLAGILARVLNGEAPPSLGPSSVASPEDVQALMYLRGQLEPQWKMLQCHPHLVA
Please note: Ki exactly at 30 nM is 0. Only values below 30 nM get 1.

QUERY: Lab log: compare recorded Ki with 30 nM; is it strictly lower for CCCCCCc1nc2cc(/C=C/C(=O)NO)ccc2n1CCNC(C)C ?
RESULT: 1

QUERY: Lab log: compare recorded Ki with 30 nM; is it strictly lower for CN(C)CC(C)(C)Cn1c(CC(C)(C)C)nc2cc(/C=C/C(=O)NO)ccc21 ?
RESULT: 0

QUERY: Lab log: compare recorded Ki with 30 nM; is it strictly lower for CN(C)CC(C)(C)Cn1c(CCc2ccccc2)nc2cc(/C=C/C(=O)NO)ccc21 ?
RESULT: 1

QUERY: Lab log: compare recorded Ki with 30 nM; is it strictly lower for CCCCc1nc2cc(/C=C/C(=O)NO)ccc2n1CCN(CC)CC.Cl.Cl ?
RESULT: 1

QUERY: Lab log: compare recorded Ki with 30 nM; is it strictly lower for CCCCc1nc2cc(/C=C/C(=O)NO)ccc2n1CCNC(C)C ?
RESULT: 0

QUERY: Lab log: compare recorded Ki with 30 nM; is it strictly lower for CCCCCCc1nc2cc(/C=C/C(=O)NO)ccc2n1CCN(C)C ?
RESULT: 1

QUERY: Lab log: compare recorded Ki with 30 nM; is it strictly lower for O=C(/C=C/c1cccc(S(=O)(=O)Nc2ccccc2)c1)NO [BELINOSTAT] ?
RESULT: 0

QUERY: Lab log: compare recorded Ki with 30 nM; is it strictly lower for CCCCCCc1nc2cc(/C=C/C(=O)NO)ccc2n1CCNCC ?
RESULT: 1

====

# Measurement description: Terminal half life in Beagle dog at 2 mg/kg, iv
# Type: ADME, organism-based, Canis lupus familiaris
# Design: dose 2 mg/kg, route intravenous
# Condition summary: in vivo, read-out: beta t1/2 (converted)
Readout label: half-life (h)
Quick reminder: number only, in h, skip the unit.

QUERY: Any idea what half-life was measured for CCCCc1nc2cc(/C=C/C(=O)NO)ccc2n1CCN(CC)CC.Cl.Cl ?
RESULT: 3.9

====

# Measurement description: Solubility of the compound in water at pH 2.2
# Assay type: physicochemical
Readout label: solubility

QUERY: Any idea what solubility was measured for CCCCc1nc2cc(/C=C/C(=O)NO)ccc2n1CCN(CC)CC.Cl.Cl ?
RESULT: > 100 mg/mL

====

# Measurement description: Volume of distribution at steady state in Wistar rat at 2 mg/kg, iv
# Assay type: ADME, organism-based
# Design: dose 2 mg/kg, route intravenous
# Condition summary: in vivo, read-out: Vdss
Readout label: Vd (L/kg)
Quick reminder: number only, in L/kg, skip the unit.

QUERY: Any idea what Vd was measured for CCCCc1nc2cc(/C=C/C(=O)NO)ccc2n1CCN(CC)CC.Cl.Cl ?
RESULT: 1.66

====

Record form. Attribute: Ki. Fill in for each entry.
Quick reminder: number only, in nM, skip the unit.

QUERY: Param readout = Ki; param system = Histone deacetylase 9 (Homo sapiens, UniProt Q9UKV0); param query = CCCCCCc1nc2cc(/C=C/C(=O)NO)ccc2n1CCNC(C)C ; response: value
Sequence (Q9UKV0 whole entry): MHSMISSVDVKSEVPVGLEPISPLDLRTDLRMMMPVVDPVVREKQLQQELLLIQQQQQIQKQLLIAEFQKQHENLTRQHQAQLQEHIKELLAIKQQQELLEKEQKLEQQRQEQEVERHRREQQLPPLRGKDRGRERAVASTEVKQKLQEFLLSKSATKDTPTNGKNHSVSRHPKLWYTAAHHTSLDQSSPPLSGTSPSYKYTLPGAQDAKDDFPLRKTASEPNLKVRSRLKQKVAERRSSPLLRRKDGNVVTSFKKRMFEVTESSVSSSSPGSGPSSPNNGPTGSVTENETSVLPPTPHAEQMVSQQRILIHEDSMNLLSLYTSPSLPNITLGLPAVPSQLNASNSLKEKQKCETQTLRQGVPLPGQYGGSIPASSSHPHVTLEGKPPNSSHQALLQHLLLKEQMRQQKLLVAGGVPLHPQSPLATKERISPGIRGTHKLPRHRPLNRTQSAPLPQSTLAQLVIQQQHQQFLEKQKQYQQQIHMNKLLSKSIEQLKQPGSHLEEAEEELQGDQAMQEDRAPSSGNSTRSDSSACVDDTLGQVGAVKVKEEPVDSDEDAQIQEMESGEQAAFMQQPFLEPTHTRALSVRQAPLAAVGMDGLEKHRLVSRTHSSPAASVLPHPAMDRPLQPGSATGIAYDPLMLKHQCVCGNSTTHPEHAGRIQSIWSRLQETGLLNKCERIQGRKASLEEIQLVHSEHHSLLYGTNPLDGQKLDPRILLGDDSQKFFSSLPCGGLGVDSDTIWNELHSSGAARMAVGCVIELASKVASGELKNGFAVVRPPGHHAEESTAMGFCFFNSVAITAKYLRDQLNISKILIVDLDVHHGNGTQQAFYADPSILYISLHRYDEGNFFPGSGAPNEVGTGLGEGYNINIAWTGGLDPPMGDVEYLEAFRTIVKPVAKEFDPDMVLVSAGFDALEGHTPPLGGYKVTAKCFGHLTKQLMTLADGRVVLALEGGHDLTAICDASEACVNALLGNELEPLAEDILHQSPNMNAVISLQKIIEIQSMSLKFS
RESULT: 16

QUERY: Param readout = Ki; param system = Histone deacetylase 9 (Homo sapiens, UniProt Q9UKV0); param query = CCCCCCc1nc2cc(/C=C/C(=O)NO)ccc2n1CCNCC ; response: value
RESULT: 14

QUERY: Param readout = Ki; param system = Histone deacetylase 9 (Homo sapiens, UniProt Q9UKV0); param query = CN(C)CC(C)(C)Cn1c(CC(C)(C)C)nc2cc(/C=C/C(=O)NO)ccc21 ; response: value
RESULT: 11

QUERY: Param readout = Ki; param system = Histone deacetylase 9 (Homo sapiens, UniProt Q9UKV0); param query = CCCCCCc1nc2cc(/C=C/C(=O)NO)ccc2n1CCN(C)C ; response: value
RESULT: 11

# credit: ChEMBL document CHEMBL1828590
